# Test system: T-47D breast
# experiment_summary: NCI-60 one-dose screen, 48 h
# stated_conditions: 10 µM unless noted
The panel holds about 83,000 compounds, 20% with a hit somewhere; the sample as a whole holds those more often. Activity calls are given as the source filed them. Rule for the calls: active = growth percent below 10; inactive = the rest.
Output constraint: value belongs to active, inactive

Please review the entries below; each comes with its answer.
Cc1c2cc[nH]c(=O)c2c(C)c2c1[nH]c1cc(OCCN3CCN(C)CC3)ccc12 | inactive
c1ccc(-c2c(-c3ccccc3)[n+](Cc3ccc4ccccc4c3)c(-c3cccc4ccccc34)n2Cc2ccc3ccccc3c2)cc1 | active
[O-][n+]1c(Cl)cc(Cl)c2ccccc21 | inactive

Req: Fill in: this test's call for CCCCCN1C=C/C(=C\C(=O)n2ccc3ccccc32)c2ccccc21 is ___
Resp: inactive

Req: Fill in: this test's call for CC(=O)O[C@@H]1C2CCC3C(CC[C@@]4(C)C3CC[C@@H]4C(C)N(C)C)[C@@]2(C)CC[C@@H]1NC(=O)C=C(C)C (stereo not given in full) is ___
Resp: active

Req: Fill in: this test's call for COc1ccccc1NS(=O)(=O)c1cccc(C(=O)Nc2ccc(Br)cc2)c1 is ___
Resp: inactive

Req: Fill in: this test's call for COc1cc(NC(C)CCCNC(=O)CCC(=O)NCCCNCCCCCCCCCCNCCCNC(=O)CCC(=O)NCCCC(C)Nc2cc(OC)cc3cccnc23)c2ncccc2c1 (stereo not given) is ___
Resp: inactive

Req: Fill in: this test's call for COc1cc(C2C3=C(COC3=O)N(CCO)c3cc4c(cc32)OCO4)cc(OC)c1OC (stereo not given) is ___
Resp: inactive

Req: Fill in: this test's call for COc1cccc(-c2ccc3c(c2)NC(=O)/C3=C\c2ccc[nH]2)c1 is ___
Resp: inactive

Req: Fill in: this test's call for O=C1Nc2cc(-c3cccc([N+](=O)[O-])c3)ccc2/C1=C/c1ccc[nH]1 is ___
Resp: active

Req: Fill in: this test's call for CCC(CC)NCC(C)(C)O is ___
Resp: inactive

Req: Fill in: this test's call for CCOC(=O)c1ccc2c(c1)ncn2-c1ccc(NC(=O)Nc2cccc(C)c2)cc1 is ___
Resp: inactive

----------
# Test system: COLO 205 colon
# experiment_summary: NCI-60 one-dose screen, 48 h
# stated_conditions: 10 µM unless noted
About 83,000 compounds went through this panel and 20% of them were active in at least one assay; those are over-represented in the sample as a whole. Calls of active or inactive are those of the source. Rule for the calls: active = growth percent below 10; inactive = the rest.
Output constraint: value belongs to 1 = active, -1 = inactive

Req: Fill in: this test's call for Cc1ccc(/C=C(/C#N)n2nnc3cccc(F)c32)cc1 is ___
Resp: 1

Req: Fill in: this test's call for C=C1C(=O)O[C@H]2[C@H]1CC/C(CNC(=O)C(C)c1ccc(CC(C)C)cc1)=C\CC[C@@]1(C)O[C@@H]21 (stereo partly drawn) is ___
Resp: 1

Req: Fill in: this test's call for COc1cc2c(-c3cc4c(cc3CNCCc3ccc5c(c3)OCO5)OCO4)cccc2c(OC)c1O is ___
Resp: -1

Req: Fill in: this test's call for COc1cc(F)c(/C=C/c2cc(/C=C/c3cc(OC)c(OC)cc3F)on2)cc1OC is ___
Resp: -1

Req: Fill in: this test's call for Cc1ncc(C(=O)Nc2ccc(CN3CCN(C)CC3)c(C(F)(F)F)c2)cc1C#Cc1cnc(N)cc1C#N is ___
Resp: -1

Req: Fill in: this test's call for Cc1ccc(-c2csc(NC(=O)CSc3nc(-c4ccccc4)cc(=O)[nH]3)n2)cc1 is ___
Resp: -1

Req: Fill in: this test's call for Cc1cc(Cl)nc(N(CCNc2ccnc3cc(Cl)ccc23)Cc2ccccn2)n1 is ___
Resp: -1

Req: Fill in: this test's call for CCOC(=O)c1cc(C(=O)c2ccc(Br)cc2)n2ccc(/C=C/c3cc[n+](CC(=O)c4ccc(OC)cc4)cc3)cc12 is ___
Resp: -1

Req: Fill in: this test's call for CCN(CC)c1ccc(/C=N/NC(=O)CSc2nc3ccccc3c(=O)n2CCc2ccc(S(N)(=O)=O)cc2)c(O)c1 is ___
Resp: 1

Req: Fill in: this test's call for CCN1Cc2nc3sc(C)c(C)c3c(=O)n2C=C1C is ___
Resp: -1
